Provide the reported fold_change of each item.
- System: zebrafish larvae, 120 hpf
- assayComment: Larval photomotor response (LPR) assay after vial exposure
- Assay type: in vivo, Danio rerio
- cond: LPR, period light, round 2, conc 12.8
Give bare numbers.

Reference set (3 entries):
1) Cc1ccc(C)c2c(C)cccc12	0.4664
2) CC(C)c1ccc2ccccc2c1	-0.1327
3) Cc1cc2cccc(C)c2cc1C	0.6308

Would you kindly look at the next entry?
Request: Endpoint output: fold_change of "Cc1cc(C)c2c(C)cccc2c1" . Value?
Result: -0.6609

###

- Test system: early life stage zebrafish (Danio rerio) embryos
- assayComment: Developmental toxicity morphology screen, sealed rotating vial exposure
- Format: in vivo
- cond: Fig. 2; nominal concentration
reportedEndpoint: BMC50 AXIS (curved or bent body axis at 120 hpf)

Reference set (5 entries):
1) Cc1cccc2c(C)cccc12	47.6 µM
2) CCc1ccc2cc(CC)ccc2c1	46.9 µM
3) Cc1cc2cccc(C)c2cc1C	32.1 µM
4) CCc1ccc2ccccc2c1	44.9 µM
5) Cc1ccc2cccc(C)c2c1	23.9 µM

Give me BMC50 AXIS (curved or bent body axis at 120 hpf) for each of these compounds, listed below.
1. Cc1cc(C)c2c(C)cccc2c1
2. CCCCc1ccc2ccccc2c1
3. Cc1ccc2c(C)cccc2c1

Result:
24.2 µM
31.7 µM
46.6 µM

Give me BMC50 AXIS (curved or bent body axis at 120 hpf) for each of these compounds, listed below.
1. Cc1cc2c(C)ccc(C)c2cc1C
2. CCc1cccc2ccccc12

Result:
21.1 µM
43.9 µM
